Overview of recorded IC50 for various compounds
# TESTED_SYSTEM: c-KIT D816H kinase (Homo sapiens, UniProt P10721, D816H)
# Construct: The construct contains residues T544-V976 of cKit; GST (N); TEV cleavage site (internal)
# Sequence (P10721 544-976 D816H): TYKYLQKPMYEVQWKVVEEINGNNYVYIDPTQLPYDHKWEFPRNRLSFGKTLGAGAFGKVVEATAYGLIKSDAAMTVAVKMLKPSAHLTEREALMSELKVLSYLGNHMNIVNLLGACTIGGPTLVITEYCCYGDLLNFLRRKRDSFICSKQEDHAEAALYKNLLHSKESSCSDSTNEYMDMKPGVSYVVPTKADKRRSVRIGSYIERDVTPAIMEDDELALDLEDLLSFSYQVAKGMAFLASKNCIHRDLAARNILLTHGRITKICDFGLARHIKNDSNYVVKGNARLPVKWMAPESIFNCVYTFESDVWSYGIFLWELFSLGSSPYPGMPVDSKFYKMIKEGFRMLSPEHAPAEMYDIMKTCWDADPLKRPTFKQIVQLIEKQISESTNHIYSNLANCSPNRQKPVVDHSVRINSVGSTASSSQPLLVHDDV
# TEST: c-KIT D816H Kinase Assay
# CONDITIONS: enzymatic assay, ATP 200 µM
PROPERTY: IC50

> print(dat)
                                  structure  property          result
1  CCn1c(=O)c(-c2cc(NC(=O)Nc3ccccc3F)c(F)cc2Cl)cc2cnc(NC)cc21      IC50    10 to 100 nM
2  CCn1c(=O)c(-c2cc(NC(=O)Nc3cc(F)ccc3F)c(F)cc2C)cc2cnc(NC)cc21      IC50  100 to 1000 nM
3  CCn1c(=O)c(-c2cc(NC(=O)Nc3cccc(F)c3)c(F)cc2C)cc2cnc(N)cc21      IC50         < 10 nM
4  CCn1c(=O)c(-c2cc(NC(=O)Nc3ccccc3)c(F)cc2C)cc2cnc(NC(C)=O)cc21      IC50         < 10 nM
5  CCn1c(=O)c(-c2cc(NC(=O)Nc3cccc4ccccc34)c(F)cc2C)cc2cnc(NC)cc21      IC50    10 to 100 nM
